# test: Cytotoxicity against mouse BMDM cells assessed as cell viability at 50 uM incubated for 24 hrs by MTT assay
# Assay type: toxicity, cell-based
# particulars: BMDM cells (bone marrow-derived macrophages), read-out: Activity
Listed molecules paired with reported viability at 24 h, 50 µM
Answer format: number, then unit.

// worked examples, viability at 24 h, 50 µM included
>  <molecule>
C=C[C@]1(C)CC[C@@H](C(=C)COC(=O)C(NC(=O)CCC(=O)OCCOc2ccc(-c3cc(=S)ss3)cc2)C(C)CC)C[C@H]1C(=C)C (stereo not given in full)

>  <viability at 24 h, 50 µM>
295%

$$$$
>  <molecule>
C=C[C@]1(C)CC[C@@H](C(=C)COC(=O)CCCCCC(=O)Oc2ccc(-c3nc(=O)ss3)cc2)C[C@H]1C(=C)C

>  <viability at 24 h, 50 µM>
323%

$$$$
>  <molecule>
C=C[C@]1(C)CC[C@@H](C(=C)C)C[C@H]1C(=C)COC(=O)C(NC(=O)CCCCC1CCSS1)C(C)CC (stereo not given in full)

>  <viability at 24 h, 50 µM>
672%

$$$$
>  <molecule>
C=C[C@]1(C)CC[C@@H](C(=C)COC(=O)CCCCC2CCSS2)C[C@H]1C(=C)C (stereo not given in full)

>  <viability at 24 h, 50 µM>
296%

$$$$

Query molecule follows.
// lookup viability at 24 h, 50 µM for "C=C[C@]1(C)CC[C@@H](C(=C)CO)C[C@H]1C(=C)C"
275%

Each recorded value in this set is attributed to ChEMBL document CHEMBL5357041.
